- Experiment: Aqueous solubility of the compound in PBS at pH 7.4 incubated for 20 hrs by RP-HPLC analysis
- Type: physicochemical
- Experimental Context: buffer, pH 7.4, 20 h
Property: solubility

**Query** Look at this compound and give its reported solubility. COc1ccc2c(c1)c(CC(=O)O)c(C)n2C(=O)c1ccc(Cl)cc1
**Result** 0.246 mg/mL

----------
- Experiment: Metabolic stability in rat liver S9 fraction assessed as parent compound remaining at 20 uM after 30 mins in presence of NADPH by RP-HPLC analysis
- Format: ADME, subcellular
- Experimental Context: read-out: Stability
Property: remaining at 0.5 h, 20 µM (%)
Quick reminder: number only, in %, skip the unit.

**Query** Query (compound): CC(Oc1ccc(Oc2ccccc2)cc1)C(=O)Cn1nnnc1CCCC(=O)O (stereo unspecified) ; field requested: remaining at 0.5 h, 20 µM
**Result** 71

**Query** I would be grateful if you could share the reported remaining at 0.5 h, 20 µM for CC(Oc1ccc(Oc2ccccc2)cc1)C(=O)Cn1cc(CCC(=O)O)nn1 (stereo unspecified) .
**Result** 29

**Query** So what's the measured remaining at 0.5 h, 20 µM for this one? O=C(O)CCc1nnnn1CC(=O)COc1ccc(Oc2ccccc2)cc1
**Result** 52

**Query** Form field: reported remaining at 0.5 h, 20 µM of O=C(O)CCCc1nnnn1CC(=O)COc1ccc(Oc2ccccc2)cc1
**Result** 36

**Query** State the recorded remaining at 0.5 h, 20 µM for this entry: CC(Oc1ccc(Oc2ccccc2)cc1)C(=O)Cn1nnnc1CCC(=O)O (stereo unspecified)
**Result** 86

----------
For each of the compounds below, state its pIC50.
- Assay System: Fatty-acid amide hydrolase 1 (Rattus norvegicus, UniProt P97612)
- Sequence (P97612 whole entry): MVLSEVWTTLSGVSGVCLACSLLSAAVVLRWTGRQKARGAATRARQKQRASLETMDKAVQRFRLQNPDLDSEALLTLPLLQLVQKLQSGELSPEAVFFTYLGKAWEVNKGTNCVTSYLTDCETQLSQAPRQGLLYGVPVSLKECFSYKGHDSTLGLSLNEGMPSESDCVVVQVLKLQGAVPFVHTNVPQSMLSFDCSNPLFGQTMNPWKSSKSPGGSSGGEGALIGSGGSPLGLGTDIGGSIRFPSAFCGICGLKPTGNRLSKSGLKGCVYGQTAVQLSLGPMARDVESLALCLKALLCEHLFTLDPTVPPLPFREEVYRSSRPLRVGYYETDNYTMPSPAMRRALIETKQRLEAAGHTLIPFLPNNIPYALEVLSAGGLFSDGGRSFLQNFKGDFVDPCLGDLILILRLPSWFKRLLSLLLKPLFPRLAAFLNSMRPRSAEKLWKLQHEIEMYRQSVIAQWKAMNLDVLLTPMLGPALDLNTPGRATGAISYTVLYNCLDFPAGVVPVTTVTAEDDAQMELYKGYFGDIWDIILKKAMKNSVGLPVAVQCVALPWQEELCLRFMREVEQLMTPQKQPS
Entry type: numeric. Quantity: pIC50, the -log10 of concentration in molar units.

**Query** Any idea what its pIC50 is? The compound is CC(C)CCCOc1ccc(OCC(=O)Cn2nnc(CCC(=O)O)n2)cc1
**Result** 7.49

**Query** Which pIC50 reading was recorded for the compound CC(Oc1ccc(Oc2ccccc2)cc1)C(=O)Cn1nnnc1CCCC(=O)O (centres undefined) ?
**Result** 6.77

**Query** Returns the measured pIC50 for the input compound. Input: O=C(O)CCc1nnn(CC(=O)COc2ccc(Oc3ccccc3)cc2)n1
**Result** 7.27

**Query** Given the entry O=C(O)CCCc1nnn(CC(=O)COc2ccc(Oc3ccccc3)cc2)n1 , report its measured pIC50.
**Result** 7.27

**Query** pIC50 for CCCCCCOc1ccc(OC(C)C(=O)Cn2nnc(CCC(=O)O)n2)cc1 (centres undefined) ?
**Result** 7.47

**Query** Form field: reported pIC50 of O=C(O)CCCc1nnnn1CC(=O)COc1ccc(Oc2ccccc2)cc1
**Result** 6.77

**Query** May I ask what pIC50 has been recorded for CC(Oc1ccc(Oc2ccccc2)cc1)C(=O)Cn1nnnc1CCC(=O)O (centres undefined) ?
**Result** 6.06

**Query** // lookup pIC50 for O=C(O)CCc1nnn(CC(=O)C2CCc3cc(-c4ccccc4)ccc3O2)n1 (centres undefined)
**Result** 7.03

**Query** Dear colleague, I am looking for the recorded pIC50 of the following compound: O=C(O)CCc1cn(CC(=O)COc2ccc(Oc3ccccc3)cc2)nn1
**Result** 6.89
